For each entry below, report its shrunken log2 fold change value.
Test system: Escherichia coli TOP10;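 also: peptides expressed intracellularly from a pBAD plasmid library in pooled LB shake-flask culture, induced with 0.3% L-arabinose, DNA abundance read by NGS, three biological replicates, DESeq2 with apeglm shrinkage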
assaySummary: shrunken log2 fold change of peptide-encoding DNA abundance (4.5 h post-induction vs induction); higher = less antimicrobial activity (less host growth inhibition)
measurementConditions: time post-induction: 4.5 h; library: site-saturation at positions 5, 18, 19, 20
The answer should be written as a number, with no unit following it.

Fill in shrunken log2 fold change for record RRIRYRPPRLPRPRPRPCDLPRP
-0.618

Tell me its shrunken log2 fold change given RRIRSRPPRLPRPRPRPDCLPRP as the entry.
-0.11

Report shrunken log2 fold change, nothing else, for this sequence: RRIRWRPPRLPRPRPRPRYTPRP
-0.25

Hello, please tell me recorded shrunken log2 fold change for this one: RRIRQRPPRLPRPRPRPHYPPRP
-0.219

Provide shrunken log2 fold change value for the following sequence: RRIRSRPPRLPRPRPRPWKVPRP
-0.173

Tell me its shrunken log2 fold change given RRIRNRPPRLPRPRPRPQHPPRP as the entry.
-0.325

Please report the measured shrunken log2 fold change for RRIRARPPRLPRPRPRPSEHPRP
-0.301

Quote shrunken log2 fold change reported for RRIRLRPPRLPRPRPRPQPLPRP please.
0.00386

Annotate the sequence RRIRTRPPRLPRPRPRPSQNPRP with its measured shrunken log2 fold change.
-0.00631

Write down shrunken log2 fold change measured for item RRIRCRPPRLPRPRPRPPLCPRP
0.674

Identify measured shrunken log2 fold change corresponding to RRIRMRPPRLPRPRPRPAYEPRP
0.0216

Report shrunken log2 fold change for RRIRQRPPRLPRPRPRPVQCPRP
-0.16

Please report shrunken log2 fold change for the following sequence: RRIRHRPPRLPRPRPRPVEEPRP
0.00298

Query shrunken log2 fold change for RRIRDRPPRLPRPRPRPQDWPRP
0.324

Kindly indicate its recorded shrunken log2 fold change. Item: RRIRFRPPRLPRPRPRPIMMPRP
-0.529

Tell me shrunken log2 fold change reported for RRIRKRPPRLPRPRPRPFCAPRP
0.588

Entry RRIRWRPPRLPRPRPRPIVDPRP needs its shrunken log2 fold change filled in; supply it.
-0.0254

Indicate the recorded shrunken log2 fold change value for this sequence: RRIRNRPPRLPRPRPRPLLLPRP
-0.25

Fill in shrunken log2 fold change for record RRIRPRPPRLPRPRPRPLAMPRP
0.193

Using the record for RRIRVRPPRLPRPRPRPHPAPRP , state its measured shrunken log2 fold change.
0.296

// Input: RRIRHRPPRLPRPRPRPEFDPRP . Output its shrunken log2 fold change only.
0.12

Determine its reported shrunken log2 fold change: RRIRNRPPRLPRPRPRPMFCPRP
0.0294

Name the recorded shrunken log2 fold change of the item RRIRLRPPRLPRPRPRPCESPRP in your answer.
0.0102

Read the entry RRIRFRPPRLPRPRPRPDLLPRP and write its reported shrunken log2 fold change.
0.118

// fetch shrunken log2 fold change given entry RRIRNRPPRLPRPRPRPERMPRP
-0.0351

Answer with the recorded shrunken log2 fold change for the sequence listed here: RRIRFRPPRLPRPRPRPRWSPRP
0.112

Look up and state reported shrunken log2 fold change for RRIRFRPPRLPRPRPRPFYGPRP
-0.146

State, in one line, measured shrunken log2 fold change of RRIRQRPPRLPRPRPRPSPHPRP
-0.511

State its shrunken log2 fold change: RRIRIRPPRLPRPRPRPCIQPRP
-0.185

Give shrunken log2 fold change for RRIRRRPPRLPRPRPRPAPGPRP
0.812

Give reported shrunken log2 fold change value for RRIRLRPPRLPRPRPRPRCIPRP
-0.0325

Given RRIRLRPPRLPRPRPRPIQPPRP , respond with its shrunken log2 fold change.
0.0112

Reference source for all entries: the supplement of paper PMC9112550
